# System: peripheral blood CD3+ T cells
# Experiment: TCR/CD3 (anti-CD3) stimulated T cell proliferation, [3H]-thymidine incorporation
# Format: cell-based, human
# Experimental context: median in 7 CVI patients; read-out: Inhibition of proliferation by 8-CPT-cAMP (IC50)
Quantity: pIC50
Would you please state pIC50, meaning minus log10 of the concentration in mol/L, as a bare number?

Query: Look up and state reported pIC50 for Nc1ncnc2c1nc(Sc1ccc(Cl)cc1)n2[C@@H]1O[C@@H]2COP(=O)(O)O[C@H]2[C@H]1O [8-CPT-cAMP, 8-(4-chlorophenylthio)cAMP, reference compound]
Result: 5.53
